Where do the numbers come from? From ChEMBL document CHEMBL3137667.

Measurement setup: human;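 also: value is a count of indexed literature references reporting cirrhosis confirmed by histopathology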
Endpoint label: Hepatotoxicity (cirrhosis)
Please reply with the value in numeric form only.

Worked cases, answers included:
- Compound: "CC(=O)c1ccc(S(=O)(=O)NC(=O)NC2CCCCC2)cc1 [ACETOHEXAMIDE]"
  Hepatotoxicity (cirrhosis): 1
- Compound: "COc1cc2nc(N3CCN(C(=O)C4COc5ccccc5O4)CC3)nc(N)c2cc1OC (centres undefined) [DOXAZOSIN]"
  Hepatotoxicity (cirrhosis): 0
- Compound: "CCCC(C)C1(CC)C(=O)NC(=S)NC1=O (centres undefined) [THIOPENTAL]"
  Hepatotoxicity (cirrhosis): 0
- Compound: "CC(C(=O)O)c1ccc(N2CC=CC2)c(Cl)c1 (centres undefined) [PIRPROFEN]"
  Hepatotoxicity (cirrhosis): 1
- Compound: "CN1CCN(CCCN2c3ccccc3Sc3ccc(Cl)cc32)CC1 [PROCHLORPERAZINE]"
  Hepatotoxicity (cirrhosis): 0
- Compound: "O=C1NC(=O)C(c2ccccc2)(c2ccccc2)N1 [PHENYTOIN]"
  Hepatotoxicity (cirrhosis): 0
- Compound: "CC(C)[C@H](N)C(=O)OCC(CO)OCn1cnc2c(=O)nc(N)[nH]c21 (some centres undefined) [VALGANCICLOVIR]"
  Hepatotoxicity (cirrhosis): 0
- Compound: "N[C@@H](Cc1cc(I)c(Oc2cc(I)c(O)c(I)c2)c(I)c1)C(=O)O [LEVOTHYROXINE]"
  Hepatotoxicity (cirrhosis): 1

Check the records and state Hepatotoxicity (cirrhosis) for N[C@@H](Cc1ccc(N(CCCl)CCCl)cc1)C(=O)O 0

Check the records and state Hepatotoxicity (cirrhosis) for COc1ccnc(C[S+]([O-])c2nc3ccc(OC(F)F)cc3[nH]2)c1OC (centres undefined) [PANTOPRAZOLE] 0

Check the records and state Hepatotoxicity (cirrhosis) for CCCc1nn(C)c2c(=O)[nH]c(-c3cc(S(=O)(=O)N4CCN(C)CC4)ccc3OCC)nc12 0

Check the records and state Hepatotoxicity (cirrhosis) for O=c1[nH]c(=O)n(C2CCCO2)cc1F (centres undefined) [TEGAFUR] 1

Check the records and state Hepatotoxicity (cirrhosis) for CO/N=C(\C(=O)N[C@@H]1C(=O)N2C(C(=O)[O-])=C(C[N+]34CCC(C(N)=O)(CC3)CC4)CS[C@H]12)c1nsc(N)n1 [CEFCLIDIN] 0
